# Test system: PBMC
# assay-explanation: Cytotoxicity against human PBMC assessed as decrease in cell viability after 5 days by MTT assay
# Format: cell-based
# measurement-conditions: 120 h
pIC50: −log10 of the molar value.
Reported pIC50 values follow for various compounds
recorded-metric: pIC50

compound=O=S(=O)(Nc1nccs1)c1ccc(Cl)cc1 recorded_metric=pIC50 reported_value="< 4.00"
compound="C[C@@H]1C[C@@H]([C@H](O)CC2CC(=O)NC(=O)C2)C(=O)[C@@H](C)C1 [CYCLOHEXIMIDE]" recorded_metric=pIC50 reported_value=6.05
compound=Cc1ccc(S(=O)(=O)n2cnc3ccccc32)cc1 recorded_metric=pIC50 reported_value="< 4.00"
compound=O=S(=O)(c1ccc(Cl)cc1)n1cnc2ccccc21 recorded_metric=pIC50 reported_value="< 4.00"
